biological target: SARS-CoV-2 spike RBD (Wuhan-Hu-1) (Severe acute respiratory syndrome …, UniProt P0DTC2); assay: SPR
Property name: Kd (nM)
// units = nM; emit number, no label

Consider COVIC-55 (antibody, V domains shown) VH: QVQLQESGGGLVQAGGSLRLSCAASGRTFSEYAMGWFRQAPGKEREFVATISWSGGSTYYTDSVKGRFTISRDNAKNTVYLQMNSLKPDDTAVYYCAAAGLGTVVSEWDYDYDYWGQGTQVTVSS . Its measured Kd is 115
